assay.method.text: Drug reactivity against cysteine in pH 7.4 PBS buffer assessed as half life at 250 uM measured up to 72 hrs by HPLC-MS/MS analysis
Type: ADME
settings: PBS buffer with cysteine (thiol reactivity)
Collected half-life at 250 µM values appear next to each entry.

See these solved cases before continuing.
FC(F)(F)c1cc(S)cc(C(F)(F)F)c1 > 3000 min
FC(F)(F)c1cc(N=C=S)cc(C(F)(F)F)c1 < 1.02 min
C=CC(=O)Oc1cc(C(F)(F)F)cc(C(F)(F)F)c1 < 1.02 min
Fc1cc(C(F)(F)F)cc(C(F)(F)F)c1 > 3000 min

Okay, next one:
Query string: Return half-life at 250 µM for the following compound: O=C(CBr)c1cc(C(F)(F)F)cc(C(F)(F)F)c1
Result string: < 1.02 min
